System: pre-adipocytes Rep-SCs
PROCEDURE_TEXT: Cell viability assay (flow cytometry, PI)
Type: cell-based
CONDITION_SUMMARY: Homo sapiens; Pre-adipocyte, 72 h
pEC50: −log10 of the molar value.

MOLECULE: O=C1/C(=C/c2ccccc2F)CNC/C1=C\c1ccccc1F [EF24]
pEC50: 5.34

----------
System: WI-38 IR-induced senescent cells (IR-SCs)
PROCEDURE_TEXT: Cell viability assay (flow cytometry, PI)
Type: cell-based, human
CONDITION_SUMMARY: Homo sapiens, WI-38, 72 h, Table 2

SMILES_STR: O=C1/C(=C/c2ccccc2F)CNC/C1=C\c1ccccc1F
EC50 (nM): 1740
